The measurements presented in this section are drawn from patent US7084111.

biological target: mouse melanocortin-5 receptor (mouse, UniProt P41149 1-325); assay: cell-based or functional assay
Sequence (P41149 whole entry): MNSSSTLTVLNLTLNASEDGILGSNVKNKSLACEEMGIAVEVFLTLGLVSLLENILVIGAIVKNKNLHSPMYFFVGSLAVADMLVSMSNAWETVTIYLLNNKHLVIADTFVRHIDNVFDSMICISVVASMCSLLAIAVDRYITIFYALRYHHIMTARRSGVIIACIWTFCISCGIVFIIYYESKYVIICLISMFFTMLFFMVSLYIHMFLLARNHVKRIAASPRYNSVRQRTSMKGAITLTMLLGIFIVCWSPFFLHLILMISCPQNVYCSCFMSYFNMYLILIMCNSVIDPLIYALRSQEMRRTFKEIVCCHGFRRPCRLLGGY
Bridges are numbered along the chain shown (N, C = ends). Where no end group is shown, it is not given here. [ ]: non-standard residue; d: D form. Nle = CCCC[C@H](N)C(=O)O; Dap = NC[C@H](N)C(=O)O
Kindly apply the following: TRUE if EC50 (agonist) is less than 700 nM, FALSE in every other case.

Check if EC50 (agonist) falls below 700 nM for YDWR[dF]NAF[Dap]Y-NH2 (lactam 2-9; N-terminus assumed; SMILES C[C@@H]1NC(=O)[C@H](CC(N)=O)NC(=O)[C@@H](Cc2ccccc2)NC(=O)[C@H](CCCNC(=N)N)NC(=O)[C@H](Cc2c[nH]c3ccccc23)NC(=O)[C@@H](NC(=O)[C@@H](N)Cc2ccc(O)cc2)CC(=O)NC[C@@H](C(=O)N[C@@H](Cc2ccc(O)cc2)C(N)=O)NC(=O)[C@H](Cc2ccccc2)NC1=O) [SEQ ID NO:5 (Tyr-c[Asp-Trp-Arg-DPhe-Asn-Ala-Phe-Dpr]-Tyr)] .
FALSE

Check if EC50 (agonist) falls below 700 nM for YDHXRWNAFXY (Asp-Dpr side chain lactam bridge; Dpr; DBip; C-terminal amide (amide resin)) [SEQ ID NO:35 (Tyr-c[Asp-His-DBip-Arg-Trp-Asn-Ala-Phe-Dpr]-Tyr)] .
TRUE

Check if EC50 (agonist) falls below 700 nM for Ac-[Nle]DHR[dF]FK-NH2 (lactam 2-7) [SEQ ID NO:22 (Ac-Nle-c[Asp-His-Arg-DPhe-Phe-Lys])] .
FALSE

Check if EC50 (agonist) falls below 700 nM for Ac-SYS[Nle]EHRFFGKPV-NH2 [SEQ ID NO:15 (Ac-Ser-Tyr-Ser-Nle-Glu-His-Arg-Phe-Phe-Gly-Lys-Pro-Val)] .
TRUE

Check if EC50 (agonist) falls below 700 nM for YDAXRWNAFXY (Asp-Dpr side chain lactam bridge; Dpr; DPhe; C-terminal amide (amide resin)) [SEQ ID NO:24 (Tyr-c[Asp-Ala-DPhe-Arg-Trp-Asn-Ala-Phe-Dpr]-Tyr)] .
TRUE

Check if EC50 (agonist) falls below 700 nM for YDHXRWNAFXY (Asp-Dpr side chain lactam bridge; Dpr; (pI)DPhe; C-terminal amide (amide resin)) [SEQ ID NO:32 (Tyr-c[Asp-His-(pI)DPhe-Arg-Trp-Asn-Ala-Phe-Dpr]-Tyr)] .
TRUE

Check if EC50 (agonist) falls below 700 nM for Ac-SYS[Nle]EHR[dF]FGKPV-NH2 (SMILES CCCC[C@H](NC(=O)[C@H](CO)NC(=O)[C@H](Cc1ccc(O)cc1)NC(=O)[C@H](CO)NC(C)=O)C(=O)N[C@@H](CCC(=O)O)C(=O)N[C@@H](Cc1c[nH]cn1)C(=O)N[C@@H](CCCNC(=N)N)C(=O)N[C@H](Cc1ccccc1)C(=O)N[C@@H](Cc1ccccc1)C(=O)NCC(=O)N[C@@H](CCCCN)C(=O)N1CCC[C@H]1C(=O)N[C@H](C(N)=O)C(C)C) [SEQ ID NO:17 (Ac-Ser-Tyr-Ser-Nle-Glu-His-Arg-DPhe-Phe-Gly-Lys-Pro-Val-NH2)] .
TRUE

Check if EC50 (agonist) falls below 700 nM for YDHXRWNAFXY (Asp-Dpr side chain lactam bridge; Dpr; DNal(1′); C-terminal amide (amide resin)) [SEQ ID NO:34 (Tyr-c[Asp-His-DNal(1′)-Arg-Trp-Asn-Ala-Phe-Dpr]-Tyr)] .
TRUE

Check if EC50 (agonist) falls below 700 nM for YDHXRANAFXY (Asp-Dpr side chain lactam bridge; Dpr; DPhe; C-terminal amide (amide resin)) [SEQ ID NO:27 (Tyr-c[Asp-His-DPhe-Arg-Ala-Asn-Ala-Phe-Dpr]-Tyr)] .
TRUE

Check if EC50 (agonist) falls below 700 nM for YDHXRWNAFXY (Asp-Dpr side chain lactam bridge; Dpr; DNal(2′); C-terminal amide (amide resin)) [SEQ ID NO:33 (Tyr-c[Asp-His-DNal(2′)-Arg-Trp-Asn-Ala-Phe-Dpr]-Tyr)] .
TRUE

Check if EC50 (agonist) falls below 700 nM for YDHXKWNAFXY (Asp-Dpr side chain lactam bridge; Dpr; DPhe; C-terminal amide (amide resin)) [SEQ ID NO:37 (Tyr-c[Asp-His-DPhe-Lys-Trp-Asn-Ala-Phe-Dpr]-Tyr)] .
FALSE

Check if EC50 (agonist) falls below 700 nM for Ac-[Nle]DHAAAK-NH2 (lactam 2-7; SMILES CCCC[C@H](NC(C)=O)C(=O)N[C@H]1CC(=O)NCCCC[C@@H](C(N)=O)NC(=O)[C@H](C)NC(=O)[C@H](C)NC(=O)[C@H](C)NC(=O)[C@H](Cc2c[nH]cn2)NC1=O) [SEQ ID NO:19 (Ac-Nle-c[Asp-His-Ala-Ala-Ala-Lys])] .
FALSE

Check if EC50 (agonist) falls below 700 nM for YDXXRWNAFXY (Asp-Dpr side chain lactam bridge; Dpr; (rac)Atc; DPhe; C-terminal amide (amide resin)) [SEQ ID NO:30 (Tyr-c[Asp-(rac)Atc-DPhe-Arg-Trp-Asn-Ala-Phe-Dpr]-Tyr)] .
TRUE

Check if EC50 (agonist) falls below 700 nM for Ac-SYS[Nle]YDRFFNAF[Dap]YKPV-NH2 (lactam 6-13; SMILES CCCC[C@H](NC(=O)[C@H](CO)NC(=O)[C@H](Cc1ccc(O)cc1)NC(=O)[C@H](CO)NC(C)=O)C(=O)N[C@@H](Cc1ccc(O)cc1)C(=O)N[C@H]1CC(=O)NC[C@@H](C(=O)N[C@@H](Cc2ccc(O)cc2)C(=O)N[C@@H](CCCCN)C(=O)N2CCC[C@H]2C(=O)N[C@H](C(N)=O)C(C)C)NC(=O)[C@H](Cc2ccccc2)NC(=O)[C@H](C)NC(=O)[C@H](CC(N)=O)NC(=O)[C@H](Cc2ccccc2)NC(=O)[C@H](Cc2ccccc2)NC(=O)[C@H](CCCNC(=N)N)NC1=O) [SEQ ID NO:11 (Ac-Ser-Tyr-Ser-Nle-Tyr-c[Asp-Arg-Phe-Phe-Asn-Ala-Phe-Dpr]-Tyr-Lys-Pro-Val)] .
FALSE

Check if EC50 (agonist) falls below 700 nM for YDFRWNAF[Dap]Y-NH2 (lactam 2-9) [SEQ ID NO:6 (Tyr-c[Asp-Phe-Arg-Trp-Asn-Ala-Phe-Dpr]-Tyr)] .
FALSE

Check if EC50 (agonist) falls below 700 nM for YD[dF]RWNAF[Dap]Y-NH2 (lactam 2-9) [SEQ ID NO:7 (Tyr-c[Asp-DPhe-Arg-Trp-Asn-Ala-Phe-Dpr]-Tyr-NH2)] .
TRUE
